System: A549
Assay: Cytotoxicity against human A549 cells assessed as cell growth inhibition after 3 days by MTT assay
Assay type: functional, cell-based
Settings: A549, 72 h
propertyName: IC50

# input Which IC50 reading was recorded for the molecule COc1cc([C@@H]2c3cc4c(cc3[C@@H](NC(=S)NC(=O)c3ccc(Cl)cc3)[C@H]3COC(=O)[C@H]23)OCO4)cc(OC)c1O ?
# output 11.5 µM

# input Likewise for COc1cc([C@@H]2c3cc4c(cc3[C@@H](NC(=S)NC(=O)c3cccc(Cl)c3)[C@H]3COC(=O)[C@H]23)OCO4)cc(OC)c1O ?
# output 17.9 µM

# input Similarly, COc1cc([C@@H]2c3cc4c(cc3[C@@H](NC(=S)NC(=O)c3ccccc3Br)[C@H]3COC(=O)[C@H]23)OCO4)cc(OC)c1O ?
# output 11.4 µM

====

Give IC50 for every item shown.
Test system: A549
Test: Cytotoxicity against human A549 cells assessed as cell growth inhibition after 3 days by MTT assay
Type: functional, cell-based
Conditions: A549, 72 h
Give a bare numeral; the unit µM is implied.

# input Could you tell me which IC50 is on file for COc1cc([C@@H]2c3cc4c(cc3[C@@H](NC(=S)NC(=O)c3ccc(F)cc3)[C@H]3COC(=O)[C@H]23)OCO4)cc(OC)c1O ?
# output 10.8

# input Field entry: COc1cc([C@@H]2c3cc4c(cc3[C@@H](O[C@@H]3O[C@@H]5CO[C@@H](C)O[C@H]5[C@H](O)[C@H]3O)[C@H]3COC(=O)[C@H]23)OCO4)cc(OC)c1O [ETOPOSIDE]
# output 21.4

# input Now the same for COc1cc([C@@H]2c3cc4c(cc3[C@@H](NC(=S)NC(=O)c3ccccc3I)[C@H]3COC(=O)[C@H]23)OCO4)cc(OC)c1O
# output 15.1

====

System: A549
Assay: Cytotoxicity against human A549 cells assessed as cell growth inhibition after 3 days by MTT assay
Format: functional, cell-based
Details: A549, 72 h
Task for the reader: assign each of the following compounds its reported pIC50.
Recall that pIC50 is obtained by taking minus log10 of the concentration measured in molar.

# input Give the measured pIC50 of COc1cc([C@@H]2c3cc4c(cc3[C@@H](N)[C@H]3COC(=O)[C@H]23)OCO4)cc(OC)c1O .
# output 5.28

# input Moving on to the next compound: COc1cc([C@@H]2c3cc4c(cc3[C@@H](NC(=S)NC(=O)c3ccccc3)[C@H]3COC(=O)[C@H]23)OCO4)cc(OC)c1O
# output 5.01

# input Subsequent entry: COc1cc([C@@H]2c3cc4c(cc3[C@@H](NC(=S)NC(=O)c3cccc5ccccc35)[C@H]3COC(=O)[C@H]23)OCO4)cc(OC)c1O
# output 5.22

# input Query COc1cc([C@@H]2c3cc4c(cc3[C@@H](NC(=S)NC(=O)c3cccc(C)c3)[C@H]3COC(=O)[C@H]23)OCO4)cc(OC)c1O next
# output 4.88

====

Tested on: HepG2
Experiment: Cytotoxicity against human HepG2 cells assessed as cell growth inhibition after 3 days by MTT assay
Format: functional, cell-based
Details: HepG2, 72 h
propertyName: IC50 (µM)
Field: numeric (µM). Do not append units.

# input For the molecule shown here, COc1cc([C@@H]2c3cc4c(cc3[C@@H](NC(=S)NC(=O)c3ccccc3Cl)[C@H]3COC(=O)[C@H]23)OCO4)cc(OC)c1O , give the reported IC50.
# output 7.7

# input Another molecule to look at: COc1cc([C@@H]2c3cc4c(cc3[C@@H](NC(=S)NC(=O)c3ccc(C)cc3)[C@H]3COC(=O)[C@H]23)OCO4)cc(OC)c1O
# output 3

# input Next up: COc1cc([C@@H]2c3cc4c(cc3[C@@H](NC(=S)NC(=O)c3ccc(Cl)cc3)[C@H]3COC(=O)[C@H]23)OCO4)cc(OC)c1O
# output 7.6

# input Please give the result for COc1cc([C@@H]2c3cc4c(cc3[C@@H](NC(=S)NC(=O)c3cccc(Cl)c3)[C@H]3COC(=O)[C@H]23)OCO4)cc(OC)c1O too.
# output 7.6

# input Request: COc1cc([C@@H]2c3cc4c(cc3[C@@H](N)[C@H]3COC(=O)[C@H]23)OCO4)cc(OC)c1O
# output 1.5

# input Also, COc1cc([C@@H]2c3cc4c(cc3[C@@H](NC(=S)NC(=O)c3ccccc3C)[C@H]3COC(=O)[C@H]23)OCO4)cc(OC)c1O please.
# output 5.2

These entries and their values trace back to ChEMBL document CHEMBL1687881.
